Recorded kon for the following binders
Molecular target: T1, human immunoglobulin E (hIgE) (human, UniProt P01854-1 1-428)
T1 construct: also called human IgE; Native IgE (Abcam)
T1 sequence (P01854 whole entry): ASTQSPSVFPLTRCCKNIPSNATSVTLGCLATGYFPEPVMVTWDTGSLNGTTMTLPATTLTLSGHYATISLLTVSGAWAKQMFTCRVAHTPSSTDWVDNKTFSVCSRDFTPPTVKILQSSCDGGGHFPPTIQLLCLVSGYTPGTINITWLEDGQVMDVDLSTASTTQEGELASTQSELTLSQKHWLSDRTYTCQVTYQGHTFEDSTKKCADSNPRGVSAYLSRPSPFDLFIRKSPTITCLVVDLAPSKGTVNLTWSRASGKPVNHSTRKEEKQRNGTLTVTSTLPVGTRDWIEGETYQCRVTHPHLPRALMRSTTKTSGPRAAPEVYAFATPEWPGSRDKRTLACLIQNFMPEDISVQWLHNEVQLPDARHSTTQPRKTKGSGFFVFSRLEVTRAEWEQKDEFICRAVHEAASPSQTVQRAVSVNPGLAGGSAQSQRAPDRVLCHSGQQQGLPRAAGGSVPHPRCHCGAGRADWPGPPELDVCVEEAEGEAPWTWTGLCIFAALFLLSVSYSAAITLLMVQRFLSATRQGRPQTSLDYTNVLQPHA
Assay: SPR (Biacore), pH 6.0
experimentalReadout: kon

{"binder": "OmaVH15G55H - VL3 (antibody, V domains shown) VH: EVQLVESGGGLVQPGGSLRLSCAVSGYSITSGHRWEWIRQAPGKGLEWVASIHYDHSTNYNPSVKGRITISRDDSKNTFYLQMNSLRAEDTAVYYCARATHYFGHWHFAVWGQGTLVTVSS VL: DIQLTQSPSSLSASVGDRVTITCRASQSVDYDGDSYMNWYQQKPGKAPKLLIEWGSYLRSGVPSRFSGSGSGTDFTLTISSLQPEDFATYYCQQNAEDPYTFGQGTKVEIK", "assayValue": "291000 M⁻¹ s⁻¹"}
{"binder": "OMA VH15 - VL3S31H (antibody, V domains shown) VH: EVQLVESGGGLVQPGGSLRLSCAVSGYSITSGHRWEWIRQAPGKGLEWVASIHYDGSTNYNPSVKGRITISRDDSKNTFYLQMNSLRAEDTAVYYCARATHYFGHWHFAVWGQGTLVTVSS VL: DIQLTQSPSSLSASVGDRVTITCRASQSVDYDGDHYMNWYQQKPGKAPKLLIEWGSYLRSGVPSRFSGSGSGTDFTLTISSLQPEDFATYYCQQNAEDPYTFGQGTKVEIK", "assayValue": "261000 M⁻¹ s⁻¹"}
{"binder": "OMA VH15 - VL3 (antibody, V domains shown) VH: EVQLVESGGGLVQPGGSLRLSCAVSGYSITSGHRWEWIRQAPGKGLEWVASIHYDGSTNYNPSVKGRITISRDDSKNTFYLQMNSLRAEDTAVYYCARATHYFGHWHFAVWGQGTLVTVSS VL: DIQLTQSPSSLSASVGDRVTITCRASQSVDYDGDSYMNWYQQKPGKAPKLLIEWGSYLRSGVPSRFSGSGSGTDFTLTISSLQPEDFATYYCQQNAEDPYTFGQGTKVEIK", "assayValue": "281000 M⁻¹ s⁻¹"}
